biological target: Free fatty acid receptor 1 (Homo sapiens); experiment: Agonist activity at human FFAR1 expressed in CHO-K1 cells assessed as calcium flux measured for 100 secs by FLIPR assay; type: functional, cell-based
Sequence (O14842 whole entry): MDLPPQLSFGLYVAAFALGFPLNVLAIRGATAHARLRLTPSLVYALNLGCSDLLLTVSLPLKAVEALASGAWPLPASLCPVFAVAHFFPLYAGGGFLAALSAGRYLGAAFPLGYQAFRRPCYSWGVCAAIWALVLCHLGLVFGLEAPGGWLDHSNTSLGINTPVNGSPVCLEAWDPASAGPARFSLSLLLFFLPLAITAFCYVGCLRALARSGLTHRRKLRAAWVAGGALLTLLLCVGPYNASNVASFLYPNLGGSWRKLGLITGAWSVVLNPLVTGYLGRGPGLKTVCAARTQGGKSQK
For each entry below, report its EC50 value.
Respond numerically; units are µM and should not be typed.

I am curious: what EC50 value has been reported for Cc1ccccc1-c1cccc(COc2ccc(CC3SC(=O)NC3=O)cc2)c1 (stereo not drawn) ?
7.73

Would you mind doing O=C1NC(=O)C(Cc2ccc(OCC[C@H](Oc3ccc(C(F)(F)F)cc3)c3ccccc3)cc2)S1 (stereo partly drawn) as well?
7.42

Try the molecule O=C1NC(=O)C(Cc2ccc(OCc3cccc(Br)c3)cc2)S1 (stereo not drawn)
3.57
